systemTested: T1, human CD3 on CD3+ Jurkat cells (human, UniProt P07766 23-207)
T1 construct: whole, on cells; Native CD3 complex on cells; the other CD3 chains are not specified for this assay; also called Human CD3+ Jurkat
T1 sequence (P07766 23-207): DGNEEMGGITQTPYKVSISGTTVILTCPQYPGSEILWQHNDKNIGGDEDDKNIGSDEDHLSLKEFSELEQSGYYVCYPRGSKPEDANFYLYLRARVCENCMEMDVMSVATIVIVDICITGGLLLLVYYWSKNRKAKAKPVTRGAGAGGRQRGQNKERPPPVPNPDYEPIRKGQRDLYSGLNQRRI
experiment: flow cytometry, 100 nM IgG on CD3+ Jurkat cells, pH 6.0
measure: MFI pH 6.0 (MFI)
One number for each entry, in MFI.

{"binder": "SAD10320_P02_D05 (ADI-48650) (antibody, V domains shown, IgG; also called Ab77) VH: QVQLVQSGAEVKKPGASVKVSCKASGFNIKDYYMHWVRQAPGQRLEWMGWIDLENANTIYDAKFQGRVTITRDTSASTAYMELSSLRSEDTAVYYCARDATHRYFYDVWGQGTLVTVSS VL: DIVMTQSPDSLAVSLGERATINCKSSQSLLNARTGKNYLAWYQQKPGQPPKLLIYWASTRESGVPDRFSGSGSGTDFTLTISSLQAEDVAVYYCKQSHTRRTFGGGTKVEI", "measure": "MFI pH 6.0", "numericReadout": 6010}
{"binder": "SAD10319_P01_C03 (ADI-48626) (antibody, V domains shown, IgG; also called Ab244) VH: QVQLVQSGAEVKKPGASVKVSCKASGYTFTDYDMHWVRQAPGQRLEWMGWIDPYTGATKYSQKFQGRVTITRDTSASTAYMELSSLRSEDTAVYYCARDAYGHYFYDVWGQGTLVTVSS VL: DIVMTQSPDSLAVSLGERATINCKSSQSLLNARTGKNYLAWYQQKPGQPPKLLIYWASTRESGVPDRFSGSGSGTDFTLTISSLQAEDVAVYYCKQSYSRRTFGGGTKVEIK", "measure": "MFI pH 6.0", "numericReadout": 3160}

Let's switch to this binder now.
Annotate the binder SAD10318_P01_F01 (ADI-48578) (antibody, V domains shown, IgG; also called Ab204) VH: QVQLVQSGAEVKKPGASVKVSCKASGFNIKDYYMHWVRQAPGQRLEWMGWIDLENANTIYDAKFQGRVTITRDTSASTAYMELSSLRSEDTAVYYCARDAYGHYFYDHWGQGTLVTVSS VL: DIVMTQSPDSLAVSLGERATINCKSSQSLLNAHTGKNHLAWYQQKPGQPPKLLIYWASTRESGVPDRFSGSGSGTDFTLTISSLQAEDVAVYYCKQSYHHRTFGGGTKVEIK with its measured MFI pH 6.0.
418

Source listed as patent US20220380463A1.
